B1: TRAF3IP2 (parent)
chain: FMEKRNQWLVSQLSAASPDTGHDS

variants of: B1; test: protein stability index of a GFP-peptide fusion (GPS, HEK-293T) (PSI 1-6); higher = more stable; settings: c terminus: a fixed tail appended;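 further: lentivirally expressed fusions sorted by FACS into six bins by GFP to DsRed ratio, PSI derived from sequencing read proportions per bin multiplied by bin number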
Each entry belongs to exactly one class, chosen by where its protein stability index falls: low bin = under 2, mid bin = from 2 up to 3, high bin = 3 and over

* FMEKRNQWLVSQLSAASDDTGHDS [P18D] | mid bin
* FMEKRNQWLVSQLSAASPDTLHDS [G21L] | low bin
* FMEKRNQWLVSQLSAASPDTGADS [H22A] | high bin
* FMEKRNQWLVSRLSAASPDTGHDS [Q12R] | mid bin
* FMEKSNQWLVSQLSAASPDTGHDS [R5S] | mid bin
* FMEKRNQWLVSQLSKASPDTGHDS [A15K] | high bin
* FMEKRNQWLVSQLSAAKPDTGHDS [S17K] | mid bin
* FMEKRNQWLVSQLPAASPDTGHDS [S14P] | mid bin
* FMEKRRQWLVSQLSAASPDTGHDS [N6R] | mid bin
* FMEKRNQWLVSQLSAASPDTGHSS [D23S] | mid bin
* FMEKRNQWLVSQFSAASPDTGHDS [L13F] | mid bin
* FMEKRNQWLVSQLSAASPDQGHDS [T20Q] | mid bin
* FMSKRNQWLVSQLSAASPDTGHDS [E3S] | low bin
* FMEKRNQPLVSQLSAASPDTGHDS [W8P] | high bin
* FMEKRCQWLVSQLSAASPDTGHDS [N6C] | low bin
* FMEKRNQWLVSQLSAFSPDTGHDS [A16F] | mid bin
* FMEKRNQWLASQLSAASPDTGHDS [V10A] | high bin
* FMEKRNQWLVSTLSAASPDTGHDS [Q12T] | low bin
* FMEKRNQWCVSQLSAASPDTGHDS [L9C] | mid bin
